Target: Bruton's Tyrosine Kinase (BTK), inactivated state (Homo sapiens (Human), UniProt Q06187)
Sequence (Q06187 whole entry): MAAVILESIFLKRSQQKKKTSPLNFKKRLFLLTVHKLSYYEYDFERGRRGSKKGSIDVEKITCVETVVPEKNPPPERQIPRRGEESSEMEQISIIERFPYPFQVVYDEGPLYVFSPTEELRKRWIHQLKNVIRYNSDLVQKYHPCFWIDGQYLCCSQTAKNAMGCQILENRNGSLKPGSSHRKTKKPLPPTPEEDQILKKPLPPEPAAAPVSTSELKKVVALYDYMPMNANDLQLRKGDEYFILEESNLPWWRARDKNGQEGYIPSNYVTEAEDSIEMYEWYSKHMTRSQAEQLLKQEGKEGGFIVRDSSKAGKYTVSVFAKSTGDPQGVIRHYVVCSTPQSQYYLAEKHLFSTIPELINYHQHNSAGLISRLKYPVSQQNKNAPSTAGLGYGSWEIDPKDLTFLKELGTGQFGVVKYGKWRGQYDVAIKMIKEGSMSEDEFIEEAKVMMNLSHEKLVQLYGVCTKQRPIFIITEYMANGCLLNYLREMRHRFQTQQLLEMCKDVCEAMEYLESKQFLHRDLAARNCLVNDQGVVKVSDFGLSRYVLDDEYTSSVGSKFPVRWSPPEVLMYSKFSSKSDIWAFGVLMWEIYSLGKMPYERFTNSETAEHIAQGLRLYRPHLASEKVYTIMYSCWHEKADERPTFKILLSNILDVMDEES
Experiment: Bruton's Tyrosine Kinase (BTK) Inhibition TR-FRET (Time Resolved FRET) competition assay
Assay type: binding
Conditions: TR-FRET competition with Kinase Tracer 178, BTK-Eu complex, 18-24 h at 14° C.
pIC50: −log10 of the molar value.
Overview of reported pIC50 across a group of compounds:
assay-endpoint: pIC50

[[record]]
compound = "Nc1c(C(=O)c2cc3cc(C(=O)N4CCOCC4)ccc3[nH]2)cnn1-c1ccc(Oc2ccccc2)cc1F [Example I-8]"
assay_endpoint = "pIC50"
quantitative_result = 7.84

[[record]]
compound = "Cc1cc(Oc2ccccc2)ncc1-n1ncc(C(=O)c2cc3cc(C(=O)N4CCOCC4)ccc3[nH]2)c1N [Example I-3]"
assay_endpoint = "pIC50"
quantitative_result = 7.60

[[record]]
compound = "Cc1cc(Oc2cccc(F)c2F)ccc1-n1ncc(C(=O)c2cc3cc(C(=O)N4CCOCC4)ccc3[nH]2)c1N [Example I-5]"
assay_endpoint = "pIC50"
quantitative_result = 8.64

[[record]]
compound = "CNCCNC(=O)c1ccc2[nH]c(C(=O)c3cnn(-c4ccc(Oc5ccccc5C(=O)N(C)C)cc4Cl)c3N)cc2c1 [Example I-56]"
assay_endpoint = "pIC50"
quantitative_result = 8.51

[[record]]
compound = "Nc1c(C(=O)c2cc3cc(C(=O)N4CCOCC4)ccc3[nH]2)cnn1-c1ccc(Oc2ccccc2)c(F)c1 [Example I-4]"
assay_endpoint = "pIC50"
quantitative_result = 7.92

[[record]]
compound = "Cc1cc(Oc2ccccc2C#N)ccc1-n1ncc(C(=O)c2cc3cc(C(=O)N4CCOCC4)ccc3[nH]2)c1N [Example I-43]"
assay_endpoint = "pIC50"
quantitative_result = 8.89

[[record]]
compound = "CN1CCN(C(=O)c2ccc3[nH]c(C(=O)c4cnn(-c5ccc(Oc6ccccc6C(=O)N(C)C)cc5Cl)c4N)cc3c2)CC1 [Example I-46]"
assay_endpoint = "pIC50"
quantitative_result = 8.38

[[record]]
compound = "Nc1c(C(=O)c2cc3cc(C(=O)N4CCOCC4)ccc3[nH]2)cnn1-c1ccc(Oc2ccccc2F)cc1Cl [Example I-15]"
assay_endpoint = "pIC50"
quantitative_result = 9.09

[[record]]
compound = "CN(C)CCNC(=O)c1ccc2[nH]c(C(=O)c3cnn(-c4ccc(Oc5ccccc5C(=O)N(C)C)cc4Cl)c3N)cc2c1 [Example I-49]"
assay_endpoint = "pIC50"
quantitative_result = 8.85

[[record]]
compound = "CN1CCN(C(=O)c2ccc3[nH]c(C(=O)c4cnn(-c5ccc(Oc6cccc(C(=O)N(C)C)c6)cc5Cl)c4N)cc3c2)CC1 [Example I-47]"
assay_endpoint = "pIC50"
quantitative_result = 7.49

[[record]]
compound = "CN(C)C(=O)c1ccccc1Oc1ccc(-n2ncc(C(=O)c3cc4cc(C(=O)N5CCC(N(C)C(=O)OC(C)(C)C)C5)ccc4[nH]3)c2N)c(Cl)c1 (centres unmarked) [Example I-52]"
assay_endpoint = "pIC50"
quantitative_result = 7.77

[[record]]
compound = "Cc1cc(Oc2ccccn2)ccc1-n1ncc(C(=O)c2cc3cc(C(=O)N4CCOCC4)ccc3[nH]2)c1N [Example I-11]"
assay_endpoint = "pIC50"
quantitative_result = 6.70

[[record]]
compound = "COCCNC(=O)c1ccc2[nH]c(C(=O)c3cnn(-c4ccc(Oc5cccc(F)c5F)cc4C)c3N)cc2c1 [Example I-35]"
assay_endpoint = "pIC50"
quantitative_result = 8.74

[[record]]
compound = "COc1ccc(-n2ncc(C(=O)c3cc4cc(C(=O)N5CCOCC5)ccc4[nH]3)c2N)c(C)c1 [Example I-20]"
assay_endpoint = "pIC50"
quantitative_result = 6.82

